# Tested on: U2OS
# method-description: Multiplex assay against U2OS
# Format: toxicity, cell-based
# condition-label: human, 48 h, 1 µM, compound concentration 1 uM, replicate 1
measurement-kind: Population Mitochondria Different-Phenotype (%)

>>> value_reported("Cc1csc2c(N[C@@H](C)CN3CCN(S(=O)(=O)c4ccc(Cl)c(Cl)c4)CC3)ncnc12")
16
>>> value_reported("CN(C)C(=O)N[C@H]1CC[C@H](CCN2CCN(c3cccc(Cl)c3Cl)CC2)CC1.Cl [CARIPRAZINE HYDROCHLORIDE]")
12
>>> value_reported("OC1(c2ccc(Cl)cc2)CCN(Cc2c[nH]c3ccccc23)CC1")
11
>>> value_reported("Cc1cc(C)cc(-c2cnc3cc(Cl)c(-c4cccc(O)c4)cc3c2OCCCN)c1")
47
>>> value_reported("COc1ncc(-c2ccc3nccc(-c4ccnnc4)c3c2)cc1NS(=O)(=O)c1ccc(F)cc1F")
6

---

Readings of Population Membrane Permeable-Phenotype (%) for the listed compounds
# Tested on: Fibroblast
# method-description: Multiplex assay against human fibroblast
# Format: toxicity, cell-based
# condition-label: 24 h, 10 µM, compound concentration 10 uM, replicate 1
measurement-kind: Population Membrane Permeable-Phenotype (%)

>>> value_reported("C=CC(=O)Nc1cc2c(Nc3ccc(F)c(Cl)c3)ncnc2cc1OCCCN1CCOCC1.Cl.Cl [CANERTINIB DIHYDROCHLORIDE]")
"1%"
>>> value_reported("COc1cccc([C@@H](C)NCCCc2ccccc2Cl)c1.Cl [TECALCET HYDROCHLORIDE]")
"13%"
>>> value_reported("C=CC(=O)Nc1cccc(C(=O)Nc2ccc(Nc3cc(-c4[nH]c(SC)nc4C)ccn3)cc2)c1")
"20%"
>>> value_reported("COc1cc2nccc(Oc3ccc(NC(=O)Nc4cc(C)on4)c(Cl)c3)c2cc1OC.O")
"11%"
>>> value_reported("COc1cc(-n2cnc3cc(-c4ccc(Cl)cc4)sc3c2=O)ccc1OCCN1CCCC1")
"25%"
>>> value_reported("CCN(CC)CCCCNc1ncc2cc(-c3cc(OC)cc(OC)c3)c(NC(=O)NC(C)(C)C)nc2n1")
"2%"

---

# Test system: HEK-293T
# method-description: Multiplex assay against HEK293T
# Assay type: toxicity, cell-based
# condition-label: human, 48 h, 10 µM, compound concentration 10 uM, replicate 2
Readings of Population Hoechst High Intensity Objects (%) for the listed compounds
measurement-kind: Population Hoechst High Intensity Objects (%)

>>> value_reported("Cc1[nH]c(/C=C2\\C(=O)Nc3ccc(S(=O)(=O)N(C)c4cccc(Cl)c4)cc32)c(C)c1C(=O)N1CCN(C)CC1")
"3%"
>>> value_reported("CN(C)C(=O)N[C@H]1CC[C@H](CCN2CCN(c3cccc(Cl)c3Cl)CC2)CC1.Cl [CARIPRAZINE HYDROCHLORIDE]")
"6%"
>>> value_reported("NC(=O)Nc1cc(-c2cccc(F)c2)sc1C(=O)N[C@H]1CCCNC1 [AZD-7762]")
"8%"
>>> value_reported("Cc1cc(C)cc(-c2cnc3cc(Cl)c(-c4cccc(O)c4)cc3c2OCCCN)c1")
"7%"
>>> value_reported("Cl.N#Cc1ccc2[nH]cc(CCCCN3CCN(c4ccc5oc(C(N)=O)cc5c4)CC3)c2c1 [VILAZODONE HYDROCHLORIDE]")
"30%"
>>> value_reported("CN1CCN(c2ccc(OC(F)(F)F)c(Nc3ncc4c(n3)-c3c(c(C(N)=O)nn3CCO)CC4)c2)CC1 [ONVANSERTIB]")
"6%"
>>> value_reported("O=C1NCN(c2ccccc2)C12CCN(CCCOc1ccc(F)cc1)CC2 [SPIRAMIDE]")
"4%"
>>> value_reported("COc1cc2nccc(Oc3ccc(NC(=O)Nc4cc(C)on4)c(Cl)c3)c2cc1OC.O")
"2%"
>>> value_reported("c1cn2cc(-c3ccc4cn[nH]c4c3)nc(Nc3ccc(N4CCOCC4)cc3)c2n1 [ENTOSPLETINIB]")
"20%"
>>> value_reported("C[C@@H](NCCCc1cccc(C(F)(F)F)c1)c1cccc2ccccc12.Cl [CINACALCET HYDROCHLORIDE]")
"9%"
>>> value_reported("CC(C)(O)CNc1ncc(-c2ccnc(Nc3ccnc(Cl)c3)n2)c(CC2CC2)n1")
"16%"
>>> value_reported("C=CC(=O)Nc1cccc(C(=O)Nc2ccc(Nc3cc(-c4[nH]c(SC)nc4C)ccn3)cc2)c1")
"3%"
>>> value_reported("C=CC(=O)Nc1ccc2ncnc(Nc3ccc(OCc4cccc(F)c4)c(Cl)c3)c2c1.Cc1ccc(S(=O)(=O)O)cc1")
"10%"
>>> value_reported("CCOCCn1cc(C(=O)Nc2ccc(-n3nc(-c4cccnc4)cc3C(F)(F)F)cn2)ccc1=O [BI 1935]")
"4%"
>>> value_reported("Cn1cc(-c2[nH]c3cc(NC(=O)[C@H](N)C4CCCCC4)cc4c3c2C=NNC4=O)cn1")
"15%"
>>> value_reported("CN(C)CC#Cc1ccc(OCCCc2sc(N3CCc4cccc(C(=O)Nc5nc6ccccc6s5)c4C3)nc2C(=O)O)c(F)c1 [A-1155463]")
"3%"
>>> value_reported("COc1cc(-n2cnc3cc(-c4ccc(Cl)cc4)sc3c2=O)ccc1OCCN1CCCC1")
"10%"
>>> value_reported("COc1cccc([C@@H](C)NCCCc2ccccc2Cl)c1.Cl [TECALCET HYDROCHLORIDE]")
"2%"
>>> value_reported("CNCc1ccccc1-c1csc([C@H](C)Nc2nc(C)nc3cc(OC)c(OC)cc23)c1 [BAY-294]")
"6%"
>>> value_reported("CN1CCCC(n2nc(Cc3ccc(Cl)cc3)c3ccccc3c2=O)CC1.Cl (stereo unspecified) [AZELASTINE HYDROCHLORIDE]")
"18%"
>>> value_reported("CNc1nc(NCc2ccc(NS(C)(=O)=O)cc2Cl)cc(-c2ccccn2)n1")
"5%"
>>> value_reported("Cc1c(-c2ccc(O)cc2)n(Cc2ccc(OCCN3CCCCCC3)cc2)c2ccc(O)cc12 [BAZEDOXIFENE]")
"9%"
>>> value_reported("CC(C)NCC(O)COc1ccc(CCOCC2CC2)cc1.Cl (stereo unspecified) [BETAXOLOL HYDROCHLORIDE]")
"4%"
>>> value_reported("CN1CCN(CCOc2cc(OC3CCOCC3)c3c(Nc4c(Cl)ccc5c4OCO5)ncnc3c2)CC1 [SARACATINIB]")
"11%"
>>> value_reported("Cc1csc2c(N[C@@H](C)CN3CCN(S(=O)(=O)c4ccc(Cl)c(Cl)c4)CC3)ncnc12")
"13%"
>>> value_reported("CN1CCC[C@@H]1CCO[C@](C)(c1ccccc1)c1ccc(Cl)cc1.O=C(O)/C=C/C(=O)O [CLEMASTINE FUMARATE]")
"8%"
